meta.source: patent US20060166900A1

# experimental.details: Stability indicating HPLC assay and related substances on storage (Example 3)
# Format: physicochemical
# condition.notes: 1 month, 60° C.
test.readout: Known Related Substances HN75083
Please format your answer as a value with the unit trailing.

// known answers, use as guide
compound: CN1CCC23c4c5ccc(O)c4OC2C(OC2OC(C(=O)O)C(O)C(O)C2O)C=CC3C1C5.CN1CCC23c4c5ccc(O)c4OC2C(OC2OC(C(=O)O)C(O)C(O)C2O)C=CC3C1C5.O=S(=O)(O)O (stereo not drawn) [Morphine-6-glucuronide sulphate]
Known Related Substances HN75083: 0.61%
//
compound: Br.CN1CC[C@]23c4c5ccc(O)c4O[C@H]2[C@@H](O[C@@H]2O[C@H](C(=O)O)[C@@H](O)[C@H](O)[C@H]2O)C=C[C@H]3[C@H]1C5 [Morphine-6-glucuronide hydrobromide]
Known Related Substances HN75083: 0.02%

Next, consider the following compound.
Lab note: measured Known Related Substances HN75083 of CN1CC[C@]23c4c5ccc(O)c4O[C@H]2[C@@H](O[C@@H]2O[C@H](C(=O)O)[C@@H](O)[C@H](O)[C@H]2O)C=C[C@H]3[C@H]1C5.Cl [Morphine-6-glucuronide hydrochloride] was 0.03%
